Where these numbers come from: ChEMBL document CHEMBL1201862

Reported GI50 by item:
Test system: DMS-114
Assay: NCI tumour cell line growth inhibition, 48 h
Active and inactive are the calls of the source. No stated cut-off is given here; in the data, active = GI50 up to about 1.1 µM and inactive = higher.
observedProperty: GI50

compound=O=C1C=CC(=O)c2cc(Sc3ccccc3)c(=O)ccc21 assayvalue="18.8 µM (inactive)"
compound=Cn1c(=O)nc2n(-c3ccc(Cl)cc3)c(-c3ccccc3)c(-c3ccccc3)nc-2c1=O assayvalue="28.1 µM (inactive)"
compound=O=C(CSc1nnc(-c2ccc(/N=C\c3ccc(Cl)cc3)cc2)o1)Nc1ccc(Cl)cc1 assayvalue="> 100 µM (inactive)"
compound="O=[N+]([O-])c1ccc2nc(/C(=N/Nc3ccccc3)C(O)c3ccc(Cl)cc3Cl)c(O)nc2c1 (stereo unspecified)" assayvalue="8.65 µM (inactive)"
compound=CC1=C2C(=CC(C)(C)[C@@H]2O)C(=O)[C@](C)(O)C12CC2 assayvalue="0.0251 µM (active)"
compound="N#CC12CCC1C1CCCCC12N1CCSCC1 (stereo unspecified)" assayvalue="> 100 µM (inactive)"

* * *

Tested on: OVCAR-4
Assay: NCI tumour cell line growth inhibition, 48 h
The source made the active and inactive calls. No stated cut-off is given here; in the data, active = GI50 up to about 1.1 µM and inactive = higher.
Outcome codes: class 1 for active, class 0 for inactive

compound=O=C(O)Cn1ncn(NC(=O)Cc2ccccc2)c1=S group="class 0"
compound="CCOC(OC1=C(C#N)CCCC1)C(C)[Se]c1ccccc1 (stereo unspecified)" group="class 0"
compound=O=C1C(Cl)=C(Nc2ccc(S(=O)(=O)O)cc2)C(=O)c2ccccc21 group="class 0"
compound="NC1=C(c2nc(-c3ccccc3)cs2)C(c2ccco2)c2c(c3ccccc3oc2=O)O1 (stereo unspecified)" group="class 0"
compound=C#Cc1cccc(N2C(=O)c3c(c(-c4ccccc4)c(-c4ccc(Cc5ccc(-c6c(-c7ccccc7)c7c(c(-c8ccccc8)c6-c6ccccc6)C(=O)N(c6cccc(C#C)c6)C7=O)cc5)cc4)c(-c4ccccc4)c3-c3ccccc3)C2=O)c1 group="class 0"
compound=COC(=O)c1ccc(-c2nc(C#N)c(N)o2)cc1 group="class 0"
compound="COc1ccc(C2CC(=O)Oc3ccccc3O2)cc1 (stereo unspecified)" group="class 0"
compound=O=C(CSc1nnc(-c2ccc(/N=C\c3ccc(Cl)cc3)cc2)o1)Nc1ccc(Cl)cc1 group="class 0"
compound=COc1ccc(-c2cc(-c3cc(F)c(Cl)cc3Cl)[nH]n2)cc1OC group="class 0"
compound="COC1=CC(=O)c2c(cc3c(c2O)-c2c(OC)cc4cc5c(c(O)c4c2OC(=O)CC(C)(O)C3)C(=O)CC(C)(O)C5)C1=O (stereo unspecified)" group="class 0"
compound="C[C@@H]1CC[C@@]2(C)[C@H](C)/C(=C\\COC(=O)/C=C/c3ccc(O)c(O)c3)CC[C@@]12C [NAVICULYL CAFFEATE]" group="class 0"
compound="COC(=O)/N=[N+](\\[O-])C(c1ccc(OC)cc1)C1CCCCC1 (stereo unspecified)" group="class 1"
compound=COc1ccccc1/C=C(\C#N)c1ccccc1 group="class 0"
compound=CSc1nc(SC)c2c(C(N)=S)n[nH]c2n1 group="class 0"
compound=C=C(C)[C@@]1(O[Si](C)(C)C)CCCC[C@@H]1CC(Sc1ccccc1)Sc1ccccc1 group="class 0"
compound="COc1cc2c(cc1O)CN1CCC23C=C[C@@H](O)CC13 (stereo partly specified)" group="class 0"
compound="CCOC12SC(Nc3ccc(C)cc3)=NN1C(=S)N(C)N=C2C (stereo unspecified)" group="class 0"
compound=COc1cc2c(c3c1c(=O)c1ccccc1n3C)C=CC(C)(C)O2 group="class 0"
compound="O=C(Cc1nccc2c1[nH]c1ccccc12)OC1C#CCSCC#C/C=C\\1 (stereo unspecified)" group="class 0"
compound="COc1cc(S(=O)(=O)Nc2ccc(-c3csc(N4C(=O)C(Cl)C4c4cccc(Oc5ccccc5)c4)n3)cc2)ccc1Cl (stereo unspecified)" group="class 0"
compound=Cc1noc2cccc(OCc3ccccc3)c12 group="class 0"

* * *

Test system: RXF 393
Test: NCI tumour cell line growth inhibition, 48 h
Active and inactive are the calls of the source. No stated cut-off is given here; in the data, active = GI50 up to about 1.1 µM and inactive = higher.
Possible outcomes: 1 for active, -1 for inactive

compound=Oc1cc2c3c(c1)c1cc4c(cc1c[n+]3CC2)OCO4 group=-1
compound="COc1cc([C@H]2c3cc4c(cc3[C@H](NCc3ccc([N+](=O)[O-])cc3)C3COC(=O)[C@H]32)OCO4)cc(OC)c1O (stereo partly specified)" group=-1
compound=Nc1nc(Cl)nc(NCc2ccccc2)n1 group=-1
compound=CCOC(=O)Nc1ccc2c(c1)c(CCCCCCc1nc3ccccc3c3ccc(NC(=O)OCC)cc13)nc1ccccc12 group=-1
compound="O=C(Cc1nccc2c1[nH]c1ccccc12)OC1C#CCSCC#C/C=C\\1 (stereo unspecified)" group=-1
compound=CC(=O)O[C@H]1C(=O)[C@@]2(C)[C@H]([C@H](OC(=O)c3ccc(F)cc3)[C@]3(O)C[C@H](OC(=O)[C@H](O)[C@@H](NC(=O)c4ccccc4)c4ccccc4)C(C)=C1C3(C)C)[C@]1(OC(C)=O)CO[C@@H]1C[C@@H]2O group=1
compound="COc1cc(C2c3cc4c(cc3[C@@H](OCCN)[C@H]3COC(=O)C23)OCO4)cc(OC)c1O (stereo partly specified)" group=1
compound="NC1=C(c2nc(-c3ccccc3)cs2)C(c2ccco2)c2c(c3ccccc3oc2=O)O1 (stereo unspecified)" group=-1
compound="CC(O)[C@@]1(c2ccccc2)CC2(CCN(C)CC2)O[C@H]1C (stereo partly specified)" group=-1
compound=COc1cc(CCNC2=CC(=O)c3nc[nH]c3C2=O)ccc1O group=-1
compound=COc1cc(/C=C2\C[C@H]3[C@@H]4CC=C5C[C@@H](N6CCCC6)CC[C@]5(C)[C@H]4CC[C@]3(C)[C@H]2O)cc(OC)c1OC group=-1
compound="N#CCCC1(CCC#N)CCCCCCCCC(CCC#N)(CCC#N)C(O)C1O (stereo unspecified)" group=-1
compound=Clc1ccc(-c2ccc(-c3nnc(COc4ccc(OCc5nnc(-c6ccc(-c7ccc(Cl)cc7Cl)o6)o5)c(Cl)c4)o3)o2)c(Cl)c1 group=-1
compound="CC12CCC(C1)C(C)(C)C2OC(=O)c1ccccc1C(=O)O (stereo unspecified)" group=-1
compound=O=[N+]([O-])c1ccc(Oc2c(Cl)cc(S(=O)(=O)N/C(=N\O)Nc3ccc(Cl)cc3)cc2Cl)c(Cl)c1 group=-1
compound=Fc1ccc(/C(=N/Cc2ccccc2)N2CCOCC2)cc1 group=-1

* * *

Tested on: K562
Test: NCI tumour cell line growth inhibition, 48 h
Active and inactive are the calls of the source. Rule as the data show it: active = GI50 up to about 1.1 µM and inactive = higher.
Outcomes: YES (active), NO (inactive)

compound=Cc1cc(=O)cc2sc3cc(Cl)ccc3nc1-2 group=NO
compound=O=C(CSc1nnc(-c2ccc(/N=C\c3ccc(Cl)cc3)cc2)o1)Nc1ccc(Cl)cc1 group=NO
compound="NC(=S)N/N=C/c1ncccc1N [TRIAPINE]" group=NO
compound=COc1cccc(NCC(=O)Nn2c(-c3ccccc3)nc3ccccc3c2=O)c1 group=NO
compound=CSc1nc(SC)c2c(C(N)=S)n[nH]c2n1 group=NO
compound=CC(=O)c1cc2c(Br)cccc2oc1=O group=NO
compound="CC1=C2C(=CC(C)(C)[C@@H]2O)C(=O)[C@](C)(O)C12CC2 [ILLUDIN M]" group=YES
compound=COc1cc(/C=C/c2ccc(OC)c(OC)c2OC)cc(OC)c1OC group=NO
compound="COc1ccc(N[S+]([O-])CCc2ccccc2)cc1 (stereo not given)" group=NO
compound=CC(CNC(=O)c1ccccc1)(CNC(=O)c1ccccc1)[N+](=O)[O-] group=NO

* * *

// reported GI50 for each item listed
Tested on: DU-145
Assay: NCI tumour cell line growth inhibition, 48 h
Activity calls are given as the source filed them. Cut-off read from the data, not from the text of the source: active = GI50 up to about 1.1 µM and inactive = higher.
observedProperty: GI50

molecule=CCc1n[nH]c(=O)n1N=C(c1ccccc1)c1ccccc1 observedproperty=GI50 assayvalue="> 100 µM (inactive)"
molecule=CN1Cc2c(ccc3c2OCO3)[C@@H]2[C@H](O)Cc3cc4c(cc3[C@@H]21)OCO4 observedproperty=GI50 assayvalue="4.4 µM (inactive)"
molecule=Oc1cc2c3c(c1)c1cc4c(cc1c[n+]3CC2)OCO4 observedproperty=GI50 assayvalue="3.23 µM (inactive)"
molecule=Brc1ccc(CCNCCN2CCCCC2)cc1 observedproperty=GI50 assayvalue="35.6 µM (inactive)"
molecule=O=C(O)Cn1ncn(NC(=O)Cc2ccccc2)c1=S observedproperty=GI50 assayvalue="> 10 µM (inactive)"
molecule="CC(O)[C@@]1(c2ccccc2)CC2(CCN(C)CC2)O[C@H]1C (some centres undefined)" observedproperty=GI50 assayvalue="> 100 µM (inactive)"
molecule=COCc1cc2c(cc1/C(=C/[N+](=O)[O-])CS(=O)(=O)c1ccccc1)OCO2 observedproperty=GI50 assayvalue="> 100 µM (inactive)"
molecule=O=c1c(Br)cc2c(-c3ccccc3)c3cc(Br)c(O)c(Br)c3oc-2c1Br observedproperty=GI50 assayvalue="> 100 µM (inactive)"
molecule=Cc1nn2c(=O)c([N+](=O)[O-])c(/C=C/c3ccccc3)nc2s1 observedproperty=GI50 assayvalue="3.74 µM (inactive)"
